Observation Type: melting point

| Compound | Observation Type | Reported Value |
| --- | --- | --- |
| O=C(Nc1ccc2c(c1)OCCO2)c1ccc2cc(Br)ccc2c1 | melting point | 223 °C |
| COC(=O)c1cnc2c(c1)CCCCC2 | melting point | 129 to 131 °C |
| O=C(Nc1ccc2c(c1)COCC2)OCc1ccccc1 | melting point | 94 to 95 °C |
| CN1CCN(c2ccc(Br)cc2)CC1 | melting point | 78 to 80 °C |
| Cc1cc(F)ccc1Nc1nc(N(C)c2ccccc2)c2cc(OCCCN3CCOCC3)ccc2n1 | melting point | 119 to 120 °C |
| O=C(Cl)c1sc2cc(OCc3ccccc3)ccc2c1Cl | melting point | 132 to 134 °C |
| Cc1nnc(-c2ccc3occ(-c4ccccn4)c3c2)o1 | melting point | 148 to 149 °C |
| CCc1cccc(C)c1CNc1cc(C(=O)N2CCOCC2)cc2c1nc(C)n2C | melting point | 229 to 231 °C |
| N#Cc1cccc(Oc2ncccc2C(=O)NCc2ccc(-c3cccc(C(=O)O)c3)cc2F)c1 | melting point | 200 to 202 °C |
| CCCCCCCCCCCCCCCCCCOCC(COC(c1ccccc1)(c1ccccc1)c1ccccc1)OC(=O)N(C)C (centres undefined) | melting point | 57.5 to 58 °C |
| CCOC(=O)c1cn2c(cc(-c3cccc(Cl)c3)c3cc(C(c4ccc(Cl)cc4)c4nncn4C)ccc32)n1 (centres undefined) | melting point | 220 °C |
| COC(=O)c1nc(-c2ccc(Cl)c(OC)c2F)c(F)c(NC(C)=O)c1Cl | melting point | 175 to 177 °C |
| O=C(OCCCc1nc(-c2ccc(Cl)cc2)co1)c1ccccc1 | melting point | 47 to 47.5 °C |
| Nc1cc(Oc2ccc(C(F)(F)F)cc2Cl)ccc1[N+](=O)[O-] | melting point | 86 to 92 °C |
| Cc1sc(N2C(=O)c3ccccc3C2=O)c(C(=O)c2ccc(Cl)cc2)c1CBr | melting point | 173 to 175 °C |
| COC(=O)[C@@H]1CCCCCOc2ccc(cc2)C[C@H](NC(=O)OCc2ccccc2)C(=O)N[C@@H](CC(C)C)C(=O)N1 | melting point | 91 to 93 °C |
| Cc1cc(NC(=O)NC(=O)c2ccccc2Cl)cc(C)c1Oc1ccc(Cl)c2c1CCCC2 | melting point | 224 to 226 °C |
| Cc1noc2ccc(Oc3ncccc3C(=O)NCc3ccc(C(C)(C)O)cc3)cc12 | melting point | 128 to 130 °C |
| CCOC(=O)c1nc(S(C)(=O)=O)n(C)c(=O)c1OCc1ccccc1 | melting point | 84 to 85 °C |

====

Recorded melting point, one value per entry.
Observation Type: melting point

| Compound | Reported Value |
| --- | --- |
| CN1C(=O)C2(COc3cc4c(cc32)OCO4)c2c(C3CCOC3)cccc21 (stereo not given) | 182 to 184 °C |
| N=C(N)N(CCCCc1ccc(OCC(=O)Nc2ccccc2)cc1)C(=O)c1nc(Cl)c(N)nc1N | 168 to 170 °C |
| CCCn1nc2c(N)nc3ccccc3c2c1CCCc1cc(-c2ccccc2)on1 | 172 to 173 °C |
| CCOC(=O)Cn1c(=S)c2ccccc2n(Cc2ccc(Cl)cc2Cl)c1=O | 138 to 139 °C |
| CCOC(=O)c1c2n(c3c(Cl)c(F)c(F)cc3c1=O)C(C)S2 (stereo not given) | 191 to 194 °C |
| O=C1NCCN1Cc1cccc(F)c1 | 103 to 105 °C |
| CC(=O)NCCn1cccc1 | 59 to 60 °C |
| CC12CC3CC(C)(C1)CC(C(=O)NCCc1cccs1)(C3)C2 | 131 to 132 °C |
| CC(=O)OC1CCC2(C)C(CCC3C4CCC(C(C)=O)C4(C)CC(=O)C32Cl)C1 (stereo not given) | 151 to 154 °C |
| COc1ccc(/C=C/C(=O)Nc2ccccc2C(=O)OCC(=O)NCC(C)(C)S)cc1OC | 148 to 150 °C |

====

Recorded melting point, one value per entry.

| Compound | melting point |
| --- | --- |
| CS(=O)(=O)c1ccc(-c2cnn(-c3cccc(Cl)c3)c(=O)c2COc2ccc(F)cc2)cc1 | 50 to 80 °C |
| CC(=O)c1ccc2c(c1)CCc1ccc(C(=O)O)cc1S2 | 230 to 232 °C |
| COC(=O)c1cc(Cl)c(N=C2NCCN2)c(Cl)c1 | 229 to 231 °C |
| CCOCc1nc2c(N)nc3ccccc3c2n1CCOCCNC(=O)N1CCOCC1 | 178 to 181 °C |
| Cc1cccc(C(CCC(=O)O)Oc2cc(OCc3cccnc3)ccc2C#N)c1C (racemic) | 187 to 189 °C |
| CCCC(C)(C)c1nc(CC(=O)O)c(C)o1 | 97 to 98 °C |
| CCCOc1nsc(NC(=O)C(C)C)c1C#N | 220 to 221 °C |
| CNC(=O)[C@H]1O[C@@H]1c1ccc(C)cc1 | 152 to 153 °C |
| CC1(C)Oc2ccc(C#N)cc2[C@@H](NC(=O)c2cscc2-n2cccc2)[C@@H]1O | 174 to 175 °C |
| CCCN(CCCC12CC3CC(CC(C3)C1)C2)C(=O)NCc1ccncc1 | 96 to 98 °C |
| COc1ccc(Cn2c(=O)c3ccccc3n(CCCCBr)c2=O)cc1 | 124 to 125 °C |
| OCc1csc(Nc2ccc(Br)cn2)n1 | 207 to 209 °C |
| CC1(C)C(=O)Nc2cc(-c3nc4ccccc4[nH]3)ccc21 | 326 to 330 °C |
| CN(C)c1ncc2c(n1)-c1ccc(Cl)cc1C(c1ccccc1F)=NC2 | 175 to 179 °C |
| COC(=O)c1ccc(-c2ccc(C(F)(F)F)cc2)c(COC(C)=O)c1 | 94 °C |
| CC(C)C(NC(=O)c1ccc(C(=O)NCCCC(=O)O)cc1)C(=O)N1CCCC1C(=O)NC(C(=O)C(F)(F)F)C(C)C (mixture of isomers) | 84 to 86 °C |
| CC1(C)C(=NOCc2ccccc2)C(c2ccc(S(C)(=O)=O)cc2)=C1c1ccccc1 | 56 to 61 °C |
| c1nnc(N2CCN(Cc3ccc4c(c3)OCO4)CC2)s1 | 111 to 112 °C |
| CC[C@H](C)[C@H](NC(=O)[C@@H]1CCCN1CC(=O)[C@H](Cc1ccccc1)NC(=O)OCc1ccccc1)C(=O)NCC(C)C | 80 to 81 °C |
| CC(C)(C)c1cc(OCC(=O)O)cc(C(C)(C)C)c1O | 172 to 173 °C |

====

Recorded melting point, one value per entry.

| Molecule | melting point |
| --- | --- |
| CCOC(=O)c1sc2cc(COc3cccnc3)ccc2c1S(=O)c1cccc(OC)c1 (stereo unspecified) | 113 to 115 °C |
| C#CCc1c(C)nc2c(OCc3ccccc3S(C)(=O)=O)cccn12 | 179 to 180 °C |
| O=C(O)c1cn(C2CC2)c2c(F)c(N3CCC(n4nncc4C(=O)O)C3)c(F)cc2c1=O (stereo unspecified) | 214 °C |
| CCN(CC)C(=O)c1cc(-n2c(=O)cc(C(F)(F)F)[nH]c2=O)c(F)cc1Cl | 253 to 254 °C |
| CCN(CCCN1CCN(c2ccccc2OC)CC1)C1CCc2ncsc2C1 (stereo unspecified) | 64 °C |
| O=C1c2ccccc2C(=O)N1CCn1nc(O)c2[nH]c3cc(Cl)ccc3c(=O)c2c1=O | 349 to 352 °C |
| COc1c(C2CCN(CCCCNC(=O)c3ccc(-c4ccc(C#N)s4)nc3)CC2)ccc2c1CCCC2 | 186 to 188 °C |
| Cc1ccccc1Oc1cccc(C=O)c1O | 56 to 58 °C |
| COCC(=O)NCc1cccc(-c2csc(N=C(N)N)n2)n1 | 195 to 196 °C |
| CN1C2CCC1CC(O)(c1ccc(Cl)c(Cl)c1)C2 (stereo unspecified) | 153 to 154 °C |
| COc1ccc2cccc3c2c1C(CC(=O)O)CC3 (stereo unspecified) | 147 °C |
| CC/C=C/C(=O)NC(=O)OC(C)(C)C | 78 to 79 °C |
| N#CCCOc1ccc(F)cc1 | 84 to 85 °C |
| NC(=O)CN1C[C@@H]2CCC[C@@H]2C1=O (relative stereo) | 138 to 141 °C |
| CCC(=O)NC1CCc2cc(OC)ccc2C1 (stereo unspecified) | 125 °C |
| CCc1nnc2c(N(CC)CC)nc3ccccc3n12 | 98 to 100 °C |
| Cn1cc(-c2ccccc2)c(=O)c(-c2cccc(C#N)c2)c1 | 164 to 166 °C |
| CN1CCN(S(=O)(=O)c2ccc3c(c2)C(=O)c2ccccc2C3=O)CC1 | 216 to 218 °C |
| CNC(=O)CN1CCc2cc(Nc3ncc(Cl)c(Nc4cc(C(N)=O)ccc4OC)n3)c(OC)cc2CC1 | 225 to 236 °C |
| Cc1c(S(N)(=O)=O)c(-c2nnc(S)o2)nn1C | 243 to 245 °C |
| CC1(c2ccc(Br)cc2)C(=O)Nc2cc(Cl)cc(Cl)c2C1=O (stereo unspecified) | 237 to 238 °C |
